Entries and their measured Emax follow.
TGT: Ghrelin receptor (Homo sapiens)
Sequence (Q92847 whole entry): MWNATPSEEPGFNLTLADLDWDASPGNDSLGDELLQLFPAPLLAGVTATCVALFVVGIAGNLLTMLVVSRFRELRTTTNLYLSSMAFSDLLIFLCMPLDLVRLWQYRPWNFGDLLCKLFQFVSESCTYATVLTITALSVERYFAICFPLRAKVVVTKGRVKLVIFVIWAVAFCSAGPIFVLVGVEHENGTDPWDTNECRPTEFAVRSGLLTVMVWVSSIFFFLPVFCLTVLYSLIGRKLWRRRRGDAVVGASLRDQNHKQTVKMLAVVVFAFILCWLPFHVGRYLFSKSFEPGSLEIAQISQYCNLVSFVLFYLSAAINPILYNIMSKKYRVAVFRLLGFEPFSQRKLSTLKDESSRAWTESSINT
EXPERIMENT_NOTES: Receptor Selection and Amplification Technology (R-SAT) assay
Type: cell-based
Design: expressed in transfected cells; host or cells: NIH3T3
CONDITION: read-out: RSAT Eff(%)
Expressed in %, but write only the number.

# SMILES_RECORD, UNIT_TAG, Emax
data = [
    ("CCCCC[C@H]1C[C@H]2CC[C@@H](C1)N2CCCn1cc(C(=O)c2ccccc2)c2cccc(OC)c21", "%", 91),
    ("COc1cccc2c(C(=O)c3ccccc3)cn(CCCN3CCC(Oc4ccc(F)cc4)CC3)c12", "%", 107),
]

-- ask Item under review: `CCC(=O)c1cn(CCCN2CCC(S(=O)(=O)c3ccc(Cl)cc3)CC2)c2ccccc12` . Reported Emax?
-- reply 1

-- ask Please answer likewise for `CC(=O)c1cn(CCCN2CCN(CCOc3ccc(Cl)cc3)CC2)c2c(C#N)cccc12`
-- reply 4

-- ask For `CC(C)CC(=O)c1cn(CCCN2CCC(Oc3ccc(F)cc3)CC2)c2ccccc12` then?
-- reply 93

-- ask Similarly, `COc1cccc2c(C(=O)NCc3cccc(Cl)c3)cn(CCCN3CCC(Oc4ccccc4Cl)CC3)c12` ?
-- reply 125

-- ask Would you kindly repeat that for `CCCCC1CCN(CCCn2cc(C(=O)NCc3cccc(Cl)c3)c3cccc(OC)c32)CC1` ?
-- reply 94

-- ask Would you mind doing `COc1cccc2c(C(=O)C3CC3)cn(CCCN3CCC(Oc4ccccc4Cl)CC3)c12` as well?
-- reply 102

-- ask Also, `CCCCC[C@H]1C[C@H]2CC[C@@H](C1)N2CCCn1cc(C(=O)NCc2cccc(Cl)c2)c2cccc(OC)c21` please.
-- reply 123
